# System under test: T1, hTNFRSF12 amino acids a28-80-hIgG1-Fc (human)
# T1 construct: wild-type TWEAKR-Fc (dimeric Fc fusion), coated on the ELISA plate; also called TPP-599; HUMAN-TNFRSF12Aaa28-80-hIgG1-Fc
# Test name: ELISA: TWEAKR-Fc construct coated at 62 ng/ml, biotinylated IgG titrated from 100 nM; token + marks IC50 of 1 to […] pM
# Experimental: To obtain dose-reaction data, the different TWEAKR-Fc muteins were coated at a low concentration (62 ng/ml) onto a 384-well Maxisorb ELISA plate, and a serial 2-fold dilution of biotinylated IgG beginning with a concentration of 100 nM was used as a soluble binding partner. Detection was carried out using streptavidin-HRP and Amplex Red. […]

{"Binder": "136.1(TPP-2194) (antibody, mouse IgG2a, kappa, V domains shown, murine IgG2a; variable domains from WO2009/020933 with a murine IgG2 constant region added; biotinylated IgG in the ELISA) VH: EVKLEESGGGLVQPGGSMKLSCVASGFTFNNYWMSWVRQSPEKGLEWLAEIRLKSDNYATHYAESVKGKFTISRDDSKSRLYLQMNNLRAENTGIYYCTGGFADYFDYWGQGTTLTVSS VL: DIVLTQSPASLTVSLGQRATISCRASQSVSTSSYSYMQWYQQRPGQPPKLLIKYATNLDSGVPARFSGSGSGTDFTLNIHPVEEEDAATYYCQHSWEIPYTFGGGTKLEIKR", "binding result": "binds"}
{"Binder": "18.3.3(TPP-2193) (antibody, mouse IgG2a, kappa, V domains shown, murine IgG2a; variable domains from WO2009/020933 with a murine IgG2 constant region added; biotinylated IgG in the ELISA) VH: EVKLGESGGGLVQPGGSMKLSCVASGFPFTKYWMNWVRQSPEKGLEWVAEIRLKSDNYATHYAESAKGRFTISRDDSRSSVYLQMNNLRAEDTAIYYCSPTYADTMDYWGQGTSVTVSS VL: DIVLTQSPASLAVSLGQRATISCKASQSVSTSTYSYMQWYQQRPGQSPKLLIKYASKLDSGVPARFSGSGSGTDFTLNIHPVEEEDTATYYCQHSWELPYTFGGGTRLEIKR", "binding result": "binds"}
